For each of the compounds below, state its fold change.
assay: viability loss with induced miR-34 in A549 – imaging, A549 dox-inducible miR-34, nuclei and caspase counts, primary screen (AID 1347080); settings: A549 miR-34 inducible, Hoechst nuclei count, 48 h; active compounds read low; cell number ratio, induced over uninduced; further: test concentration not given here
Respond using a number only.

Ask | Which fold change value is on record for C=C1C(=CC=C2CCC[C@@]3(C)C2CCC3C(C)CCCC(C)(C)O)CC(O)CC1O (some centres undefined) ?
Reply | 0.912

Ask | Quick one: "O=C(Nc1cccc(C(=O)Nc2ccc(S(=O)(=O)O)c3cc(S(=O)(=O)O)cc(S(=O)(=O)O)c23)c1)Nc1cccc(C(=O)Nc2ccc(S(=O)(=O)O)c3cc(S(=O)(=O)O)cc(S(=O)(=O)O)c23)c1"
Reply | 1.05

Ask | Record: "CC(C)c1cc(-c2ccc(F)c3ccccc23)nc(N)n1"
Reply | 0.949

Ask | Same for "Cc1cc(Nc2cc(N3CCN(C)CC3)nc(C=Cc3ccccc3)n2)n[nH]1"
Reply | 1.29

Ask | Next record, please: "COc1cc(C=CC(=O)N2CCN(CC(=O)N3CCCC3)CC2)cc(OC)c1OC"
Reply | 0.989

Ask | For OC[C@H]1O[C@@H](n2cnc3c(NC4CCCC4)ncnc32)C(O)[C@H]1O (some centres undefined) then?
Reply | 0.956

Ask | Moving on to the next compound: CC(C)CCNC(=O)C(CC(C)C)NC(=O)C1OC1C(=O)O (centres undefined)
Reply | 0.919

Ask | Then "Nc1nc(N)c2nc(-c3cccc(O)c3)cnc2n1" ?
Reply | 0.989

Ask | What about "Cn1c(=O)c2[nH]c(-c3ccc(S(=O)(=O)O)cc3)nc2n(C)c1=O" ?
Reply | 1.01

Ask | What would you report for CC1(C)S[C@@H]2C(NC(=O)C(N)c3ccc(O)cc3)C(=O)N2C1C(=O)O (some centres undefined) ?
Reply | 0.958

Ask | Here is the next compound: CC(O)[C@H]1C(=O)N2C(C(=O)OCOC(=O)C(C)(C)C)=C(SC3CN(C4=NCCS4)C3)C(C)[C@@H]12 (some centres undefined)
Reply | 0.943

Ask | Request: "O=C(NN=Cc1cc(Br)c(O)c(Br)c1O)c1cccc(Br)c1"
Reply | 0.911

Ask | What about this compound? CCCCC/C=C\C/C=C\C/C=C\CC1OC1CCCC(=O)O (centres undefined)
Reply | 0.939

Ask | What would you report for "CCCCCCCCCCCCCCC[C@@H](O)[C@@H](N)CO" ?
Reply | 0.968

Ask | Here is the next compound: "Cc1n[nH]c(=O)[nH]c1=O"
Reply | 0.871

Ask | Again, but for CN[C@H]1[C@@H](O)[C@H](O[C@H]2[C@@H](O)[C@@H](OC3OC(CN)=CCC3N)[C@H](N)C[C@@H]2N)OC[C@@]1(C)O (some centres undefined)
Reply | 0.885

Ask | Let us now turn to "NC[C@H]1O[C@H](O[C@H]2[C@H](O)[C@@H](O[C@H]3O[C@H](CO)[C@@H](O)[C@H](N)[C@H]3O)[C@H](N)C[C@@H]2N)[C@H](O)[C@@H](O)[C@@H]1O"
Reply | 0.854

Ask | Record: O=c1cc(-c2ccc(O)cc2)oc2c(C3O[C@H](CO)[C@@H](O)[C@H](O)[C@H]3O)c(O)cc(O)c12 (some centres undefined)
Reply | 0.841

Ask | Record: "CCCCCCCCCCCCCCSCC(=O)O"
Reply | 0.985
